These entries and their values trace back to ChEMBL document CHEMBL3433997.

system name: Solute carrier family 2, facilitated glucose transporter member 1 (Homo sapiens) (UniProt P11166)
Sequence (P11166 whole entry): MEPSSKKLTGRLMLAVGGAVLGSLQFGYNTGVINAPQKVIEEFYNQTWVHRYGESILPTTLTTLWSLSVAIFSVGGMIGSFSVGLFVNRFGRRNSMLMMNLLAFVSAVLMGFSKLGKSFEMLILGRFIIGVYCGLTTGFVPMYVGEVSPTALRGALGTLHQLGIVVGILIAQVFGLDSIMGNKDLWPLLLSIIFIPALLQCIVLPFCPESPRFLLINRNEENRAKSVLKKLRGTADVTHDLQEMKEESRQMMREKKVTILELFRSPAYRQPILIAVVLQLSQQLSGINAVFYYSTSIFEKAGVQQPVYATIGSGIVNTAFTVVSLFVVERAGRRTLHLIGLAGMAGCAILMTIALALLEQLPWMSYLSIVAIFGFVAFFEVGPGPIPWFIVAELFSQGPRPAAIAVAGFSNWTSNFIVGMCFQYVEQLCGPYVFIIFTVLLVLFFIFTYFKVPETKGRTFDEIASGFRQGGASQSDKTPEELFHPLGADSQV
experiment description: ST_JUDE_LEISH: Cytotoxicity at 2uM final concentration against transgenic Leishmania Mexicana promastigotes LmGLUT1 that are glucose transport deficient and complemented with the human glucose transporter GLUT1. Activity is measured by DNA content using SYBR green in vitro
Type: functional
measurement label: inhibition (%)
Write the answer as a number in %, unit excluded.

molecule: CC(C)(CNC(=O)[C@H]1CCCCN1)c1nc(-c2ccc(Cl)c(O)c2)c(-c2ccncc2)[nH]1
inhibition, %: 5.66
//
molecule: C[C@@H](CNc1ccnc(Nc2ccc3[nH]c(=O)[nH]c3c2)n1)c1ccccc1
inhibition, %: -3.02
//
molecule: O=C(Nc1ccc(Cn2ncc(N3CCCNCC3)c(Cl)c2=O)cc1)Nc1cc(C(F)(F)F)cc(C(F)(F)F)c1
inhibition, %: 2.99

[in] Annotate the molecule `CCN(CC)CCCN(CCCN(CC)CC)c1cc(C)nc(Nc2ccc(Cl)cc2)n1` with its measured inhibition.
[out] 2.61

[in] Annotate the molecule `Fc1cc(Cl)ccc1Nc1ccnc2cc(-c3ccc(CNCCN4CCOCC4)o3)ccc12` with its measured inhibition.
[out] 1.58

[in] Annotate the molecule CCC(C)CN1C(=O)C(c2ccccc2)(c2ccccc2)N=C1N (centres undefined) with its measured inhibition.
[out] 2.09

[in] Annotate the molecule `CCC(=Cc1cccc([N+](=O)[O-])c1)C(=O)NCC1CCN(c2nc3cc(OC)c(OC)cc3c(=N)[nH]2)CC1` with its measured inhibition.
[out] 5.64

[in] Annotate the molecule `O=S(=O)(NCCN1CCCC1)c1ccc(-c2ccc(CNC3Cc4ccccc4C3)cc2)cc1` with its measured inhibition.
[out] 2.13

[in] Annotate the molecule `COc1ccc(Cl)cc1C(=O)Nc1ccc(-c2nc3ccccc3[nH]2)cc1` with its measured inhibition.
[out] 4.93

[in] Annotate the molecule `N=C(N)Nc1nc(-c2cccc(NC(=O)Cc3ccccc3)c2)cs1` with its measured inhibition.
[out] 2.29

[in] Annotate the molecule CCC(C)c1cnc2nc(N)nc(N)c2c1C (centres undefined) with its measured inhibition.
[out] 1.18
